- assaySummary: in vivo
- conditions: plasma; rat, intraduodenal 100 mg/kg, 120 min
measuredProperty: concentration at 2 h (ng/mL)
A number alone suffices; assume ng/mL.

Enquiry: Tell me the measured concentration at 2 h of "CN(C)C(=O)N1CCN(C(=O)[C@H](Cc2cccc(C(=N)N)c2)NS(=O)(=O)c2ccc3ccccc3c2)CC1" , please.
Return: 3280

Enquiry: Similarly, "CC(=O)N1CCN(C(=O)[C@H](Cc2cccc(C(=N)N)c2)NS(=O)(=O)c2ccc3ccccc3c2)CC1.Cl" ?
Return: 4280

----------
- studyTarget: factor Xa (Bos taurus, UniProt P00743)
- Sequence (P00743 234-492 limits assumed): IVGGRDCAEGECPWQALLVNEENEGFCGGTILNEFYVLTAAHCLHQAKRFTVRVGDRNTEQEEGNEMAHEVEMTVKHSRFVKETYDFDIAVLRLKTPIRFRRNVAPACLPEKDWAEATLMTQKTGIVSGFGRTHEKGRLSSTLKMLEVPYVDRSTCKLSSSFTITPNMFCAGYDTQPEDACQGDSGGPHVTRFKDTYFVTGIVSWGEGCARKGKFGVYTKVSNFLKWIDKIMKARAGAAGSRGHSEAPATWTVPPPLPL
- Sequence (P00743 41-180 partner limits assumed): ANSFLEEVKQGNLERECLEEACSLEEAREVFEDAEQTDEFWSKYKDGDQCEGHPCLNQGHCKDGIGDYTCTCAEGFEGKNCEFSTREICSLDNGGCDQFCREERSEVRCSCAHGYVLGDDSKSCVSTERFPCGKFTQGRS
Could you please mark Y for values of Ki below 20 µM and N for values at or above it?

Please review the following examples before continuing.
# compound, studyTarget, className
rows = [
    ("CC1(C)C2CCC1(CS(=O)(=O)N[C@@H](Cc1cccc(C(=N)N)c1)C(=O)N1CCN(S(C)(=O)=O)CC1)C(=O)C2 (single isomer, unassigned)", "factor Xa (Bos taurus, UniProt P00743)", "Y"),
    ("NCc1cccc(CC(NS(=O)(=O)c2ccc3ccccc3c2)C(=O)N2CCN(c3ccccn3)CC2)c1 (stereo not shown)", "factor Xa (Bos taurus, UniProt P00743)", "N"),
]

Enquiry: Is Ki strictly under 20 µM for the entry COc1cc(C)c(S(=O)(=O)NC(Cc2cccc(C(=N)N)c2)C(=O)N2CCN(S(C)(=O)=O)CC2)c(C)c1C (stereo not shown) ?
Return: N

Enquiry: Next compound up: "COc1cc(C)c(S(=O)(=O)N[C@@H](Cc2cccc(C(=N)N)c2)C(=O)N2CCN(S(C)(=O)=O)CC2)c(C)c1C"
Return: N

Enquiry: Follow-up entry: N=C(N)c1cccc(CC(NS(=O)(=O)c2ccc3ccccc3c2)C(=O)N2CCN(S(=O)(=O)c3ccc4ccccc4c3)CC2)c1 (stereo not shown)
Return: N

Enquiry: And then CC(=O)N1CCN(C(=O)C(Cc2cccc(C(=N)N)c2)NS(=O)(=O)c2c(C(C)C)cc(C(C)C)cc2C(C)C)CC1 (stereo not shown) , what is it?
Return: Y

Enquiry: Next up: N=C(N)c1cccc(CC(NS(=O)(=O)c2ccc3ccccc3c2)C(=O)N2CCN(C=O)CC2)c1 (stereo not shown)
Return: Y

Reference source for all entries: patent US5607937A
